# assay_comment: clinical
# reported_conditions: human, in vivo, inhaled or intranasal, 1 mg, Tmax (h) Median
assay_metric: Tmax (min)
Numeric answer only, unit min assumed.

// sample `Cc1cc(C[C@@H](NC(=O)N2CCC(c3cc4ccccc4[nH]c3=O)CC2)C(=O)N2CCN(C3CCN(C)CC3)CC2)cc2cn[nH]c12` , its Tmax was 57.6

----------
# assay_comment: Phase 1 multiple ascending dose (MAD) study, intranasal, pharmacokinetics
# Set-up: species or system human
# reported_conditions: human, in vivo, inhaled or intranasal, 10 mg, AUC0-t (ng*h/mL) geometric mean
assay_metric: AUC(0-t) (ng·h/mL)
Numeric answer only, unit ng·h/mL assumed.

// sample `Cc1cc(C[C@@H](NC(=O)N2CCC(c3cc4ccccc4[nH]c3=O)CC2)C(=O)N2CCN(C3CCN(C)CC3)CC2)cc2cn[nH]c12` , its AUC(0-t) was 30.9

----------
# assay_comment: clinical
# reported_conditions: human, in vivo, inhaled or intranasal, 10 mg, Tmax (h) Median
assay_metric: Tmax (min)
Numeric answer only, unit min assumed.

// sample `Cc1cc(C[C@@H](NC(=O)N2CCC(c3cc4ccccc4[nH]c3=O)CC2)C(=O)N2CCN(C3CCN(C)CC3)CC2)cc2cn[nH]c12` , its Tmax was 32.4

----------
# assay_comment: clinical
# reported_conditions: human, in vivo, inhaled or intranasal, 3 mg, AUC[0-inf] (ng · h/mL) GM
assay_metric: AUC(0-inf) (ng·h/mL)
Numeric answer only, unit ng·h/mL assumed.

// sample `Cc1cc(C[C@@H](NC(=O)N2CCC(c3cc4ccccc4[nH]c3=O)CC2)C(=O)N2CCN(C3CCN(C)CC3)CC2)cc2cn[nH]c12` , its AUC(0-inf) was 9.75

----------
# assay_comment: clinical
# reported_conditions: human, in vivo, inhaled or intranasal, 3 mg, Cmax (ng/mL) GM
assay_metric: Cmax (ng/mL)
Numeric answer only, unit ng/mL assumed.

// sample `Cc1cc(C[C@@H](NC(=O)N2CCC(c3cc4ccccc4[nH]c3=O)CC2)C(=O)N2CCN(C3CCN(C)CC3)CC2)cc2cn[nH]c12` , its Cmax was 3.68

----------
# assay_comment: clinical
# reported_conditions: human, in vivo, inhaled or intranasal, Tmax (h) Median
assay_metric: Tmax (min)
Numeric answer only, unit min assumed.

// sample `Cc1cc(C[C@@H](NC(=O)N2CCC(c3cc4ccccc4[nH]c3=O)CC2)C(=O)N2CCN(C3CCN(C)CC3)CC2)cc2cn[nH]c12` , its Tmax was 46.2

----------
# assay_comment: clinical
# reported_conditions: human, in vivo, inhaled or intranasal, 1 mg, AUC[0-t] (ng · h/mL) GM
# From the text: BHV3500-101 is a completed Phase 1, single-center, placebo-controlled, randomized, double-blind, sequential SAD study. This study consisted of up to 11 cohorts. In total, 41 subjects were included in the PK analyses.
assay_metric: AUC(0-t) (ng·h/mL)
Numeric answer only, unit ng·h/mL assumed.

// sample `Cc1cc(C[C@@H](NC(=O)N2CCC(c3cc4ccccc4[nH]c3=O)CC2)C(=O)N2CCN(C3CCN(C)CC3)CC2)cc2cn[nH]c12` , its AUC(0-t) was 2.34

----------
# assay_comment: Phase 1 multiple ascending dose (MAD) study, intranasal, pharmacokinetics
# Design: species or system human
# reported_conditions: human, in vivo, inhaled or intranasal, 10 mg
assay_metric: AUC(0-inf) (ng·h/mL)
Numeric answer only, unit ng·h/mL assumed.

// sample `Cc1cc(C[C@@H](NC(=O)N2CCC(c3cc4ccccc4[nH]c3=O)CC2)C(=O)N2CCN(C3CCN(C)CC3)CC2)cc2cn[nH]c12` , its AUC(0-inf) was 33.9

----------
# assay_comment: Phase 1 multiple ascending dose (MAD) study, intranasal, pharmacokinetics
# Design: species or system human
# reported_conditions: human, in vivo, inhaled or intranasal, 20 mg
assay_metric: AUC(0-inf) (ng·h/mL)
Numeric answer only, unit ng·h/mL assumed.

// sample `Cc1cc(C[C@@H](NC(=O)N2CCC(c3cc4ccccc4[nH]c3=O)CC2)C(=O)N2CCN(C3CCN(C)CC3)CC2)cc2cn[nH]c12` , its AUC(0-inf) was 92.4

----------
# assay_comment: Phase 1 multiple ascending dose (MAD) study, intranasal, pharmacokinetics
# Parameters: species or system human
# reported_conditions: human, in vivo, inhaled or intranasal, 5 mg, AUC0-t (ng*h/mL) geometric mean
assay_metric: AUC(0-t) (ng·h/mL)
Numeric answer only, unit ng·h/mL assumed.

// sample Cc1cc(C[C@@H](NC(=O)N2CCC(c3cc4ccccc4[nH]c3=O)CC2)C(=O)N2CCN(C3CCN(C)CC3)CC2)cc2cn[nH]c12 [Zavegepant] , its AUC(0-t) was 19

----------
# assay_comment: Phase 1 multiple ascending dose (MAD) study, intranasal, pharmacokinetics
# Set-up: species or system human
# reported_conditions: human, in vivo, inhaled or intranasal, 10 mg
assay_metric: Vd/F (L)
Numeric answer only, unit L assumed.

// sample Cc1cc(C[C@@H](NC(=O)N2CCC(c3cc4ccccc4[nH]c3=O)CC2)C(=O)N2CCN(C3CCN(C)CC3)CC2)cc2cn[nH]c12 [Zavegepant] , its Vd/F was 1660

----------
# assay_comment: Phase 1 multiple ascending dose (MAD) study, intranasal, pharmacokinetics
# Set-up: species or system human
# reported_conditions: human, in vivo, inhaled or intranasal, 20 mg, AUC0-24 (ng*h/mL) geometric mean
# Procedure: A Phase 1, single-center, randomized, double-blind, placebo-controlled, sequential multiple ascending dose (MAD) study with 2 alternate dosing arms was conducted. […] In addition to the 4 MAD cohorts, there were 2 alternate dosing cohorts, each consisting of 1 day dosing. The first alternate dosing cohort assessed the effect of 2 sequential administrations of 20 mg (20 mg spray [100 μL of 200 mg/mL] in alternate nostrils); with a 30 minute interval between administrations. […]
assay_metric: AUC(0-t)
Please answer using the number first and the unit second.

// sample `Cc1cc(C[C@@H](NC(=O)N2CCC(c3cc4ccccc4[nH]c3=O)CC2)C(=O)N2CCN(C3CCN(C)CC3)CC2)cc2cn[nH]c12` , its AUC(0-t) was 80.1 ng·h/mL

----------
# assay_comment: Phase 1 multiple ascending dose (MAD) study, intranasal, pharmacokinetics
# Set-up: species or system human
# reported_conditions: human, in vivo, inhaled or intranasal, 5 mg
assay_metric: AUC(0-inf) (ng·h/mL)
Numeric answer only, unit ng·h/mL assumed.

// sample Cc1cc(C[C@@H](NC(=O)N2CCC(c3cc4ccccc4[nH]c3=O)CC2)C(=O)N2CCN(C3CCN(C)CC3)CC2)cc2cn[nH]c12 [Zavegepant] , its AUC(0-inf) was 22.4

----------
# assay_comment: clinical
# reported_conditions: human, in vivo, inhaled or intranasal, 10 mg, AUC[0-inf] (ng · h/mL) GM
assay_metric: AUC(0-inf) (ng·h/mL)
Numeric answer only, unit ng·h/mL assumed.

// sample `Cc1cc(C[C@@H](NC(=O)N2CCC(c3cc4ccccc4[nH]c3=O)CC2)C(=O)N2CCN(C3CCN(C)CC3)CC2)cc2cn[nH]c12` , its AUC(0-inf) was 28.5

----------
# assay_comment: Phase 1 multiple ascending dose (MAD) study, intranasal, pharmacokinetics
# Parameters: species or system human
# reported_conditions: human, in vivo, inhaled or intranasal, 10 mg
assay_metric: half-life (h)
Numeric answer only, unit h assumed.

// sample `Cc1cc(C[C@@H](NC(=O)N2CCC(c3cc4ccccc4[nH]c3=O)CC2)C(=O)N2CCN(C3CCN(C)CC3)CC2)cc2cn[nH]c12` , its half-life was 3.84

----------
# assay_comment: pKa of drug substance
# Type: physicochemical
# reported_conditions: mono-hydrochloride salt form
assay_metric: pKa
Give the figure by itself; no unit, no explanation.

// sample `Cc1cc(C[C@@H](NC(=O)N2CCC(c3cc4ccccc4[nH]c3=O)CC2)C(=O)N2CCN(C3CCN(C)CC3)CC2)cc2cn[nH]c12` , its pKa was 4.8

----------
# assay_comment: clinical
# reported_conditions: human, in vivo, inhaled or intranasal, 5 mg, AUC[0-inf] (ng · h/mL) GM
assay_metric: AUC(0-inf) (ng·h/mL)
Numeric answer only, unit ng·h/mL assumed.

// sample `Cc1cc(C[C@@H](NC(=O)N2CCC(c3cc4ccccc4[nH]c3=O)CC2)C(=O)N2CCN(C3CCN(C)CC3)CC2)cc2cn[nH]c12` , its AUC(0-inf) was 20.9

----------
# assay_comment: clinical
# reported_conditions: human, in vivo, inhaled or intranasal, 10 mg, Cmax (ng/mL) GM
assay_metric: Cmax (ng/mL)
Numeric answer only, unit ng/mL assumed.

// sample Cc1cc(C[C@@H](NC(=O)N2CCC(c3cc4ccccc4[nH]c3=O)CC2)C(=O)N2CCN(C3CCN(C)CC3)CC2)cc2cn[nH]c12 [Zavegepant] , its Cmax was 13.4

----------
# assay_comment: clinical
# reported_conditions: human, in vivo, median Tmax, range across doses
assay_metric: Tmax

// sample `Cc1cc(C[C@@H](NC(=O)N2CCC(c3cc4ccccc4[nH]c3=O)CC2)C(=O)N2CCN(C3CCN(C)CC3)CC2)cc2cn[nH]c12` , its Tmax was 32.4 to 57.6 min

Cited source: patent US20220401439A1
